target: wild-type Androgen Receptor (AR-wt) (Homo sapiens, UniProt P10275); construct: expressed in transfected cells; host or cells: LNCaP (LNCaP AR (cs)); experiment: LNCaP-AR-wt ANT reporter assay (ARE firefly luciferase, antagonist mode); assay type: cell-based; conditions: antagonist mode, 400 pM R-1881 challenge; −Log10(IC50 [Molar]); read-out: LNCaP-AR-wt ANT pIC50 (converted)
Let's look at some molecules and their measured IC50.
Reply with just the number (in nM).

Example results:
In [3]: df
Out[3]:
                                   molecule  measured_endpoint  reading
0  CC(C)NC(=O)c1ccc(N2C(=S)N(c3cnc(C#N)c(C(F)(F)F)c3)C(=O)C23CCC3)cc1F [Cpd 23]               IC50     1260
1  N#Cc1ncc(N2C(=O)C3(CCC3)N(c3ccc(C(=O)NCc4cnccn4)c(F)c3)C2=S)cc1C(F)(F)F [Cpd 54]               IC50      380
2  N#Cc1ncc(N2C(=O)C3(CCC3)N(c3cccc4ccccc34)C2=S)cc1C(F)(F)F [Cpd 34]               IC50      562

As a next step, examine the molecule that follows.
Exercise: # return recorded IC50 for input Cc1cc(N2C(=O)C3(CCC3)N(c3ccc(-c4cccnc4C)cc3)C2=S)cnc1C#N [Cpd 119]
Solution: 112

====

Measured Emax accompanies every entry in the list below.
target: wild-type Androgen Receptor (AR-wt) (Homo sapiens, UniProt P10275); construct: expressed in transfected cells; host or cells: LNCaP (LNCaP AR (cs)); experiment: LNCaP-AR-wt ANT reporter assay (ARE firefly luciferase, antagonist mode); format: cell-based; conditions: maximum % inhibition of R1881 control response over tested concentration range; read-out: LNCaP-AR-wt ANT MAX % Inh
The response must be a number in % with no trailing unit.

Solved cases (4 shown):
                                   compound  measured_endpoint  reading
0  CNC(=O)c1ccc(N2C(=S)N(c3cnc(C#N)c(C)c3)C(=O)C23CCC3)cc1OC [Cpd 117]               Emax      100
1  CCOC(=O)CNC(=O)c1ccc(N2C(=S)N(c3cnc(C#N)c(C(F)(F)F)c3)C(=O)C23CCC3)cc1F [Cpd 41]               Emax      102
2  Cc1cc(N2C(=O)C3(CCC3)N(c3ccc(OC4CCS(=O)(=O)CC4)cc3)C2=S)cnc1C#N [Cpd 6]               Emax      100
3  Cc1ccc(CNC(=O)c2ccc(N3C(=S)N(c4cnc(C#N)c(C(F)(F)F)c4)C(=O)C34CCC4)cc2F)o1 [Cpd 26]               Emax     97.9

Exercise: Supply Emax measured with wild-type Androgen Receptor (AR-wt) (Homo sapiens, UniProt P10275) for N#Cc1ncc(N2C(=O)C3(CCC3)N(c3ccc(Oc4ccccc4)cc3)C2=S)cc1C(F)(F)F [Cpd 99] .
Solution: 97.2

Exercise: State recorded Emax with wild-type Androgen Receptor (AR-wt) (Homo sapiens, UniProt P10275), entry Cc1cc(N2C(=O)C3(CCC3)N(c3ccc(-c4cncc(F)c4)cc3)C2=S)cnc1C#N [Cpd 104] , no comment.
Solution: 99.7

Exercise: Recall the reported Emax of Cc1cc(N2C(=O)C3(CCC3)N(c3ccc(OCCc4ccccn4)c(F)c3)C2=S)cnc1C#N [Cpd 32] when tested on wild-type Androgen Receptor (AR-wt) (Homo sapiens, UniProt P10275).
Solution: 102

Exercise: Look up and report measured Emax (wild-type Androgen Receptor (AR-wt) (Homo sapiens, UniProt P10275)) for the following compound: N#Cc1ncc(N2C(=O)C3(CCC3)N(c3ccc(C(F)(F)F)cc3)C2=S)cc1C(F)(F)F [Cpd 98]
Solution: 102

Exercise: Report Emax from wild-type Androgen Receptor (AR-wt) (Homo sapiens, UniProt P10275) testing of Cc1cc(N2C(=O)C3(CCC3)N(c3ccc(OC4CCN(C)CC4)cc3)C2=S)cnc1C#N [Cpd 4]
Solution: 100

Exercise: Jot down Emax (wild-type Androgen Receptor (AR-wt) (Homo sapiens, UniProt P10275)) of Cc1cc(N2C(=O)C3(CCC3)N(c3ccc(OC4CCN(C)CC4)c(F)c3)C2=S)cnc1C#N [Cpd 116] .
Solution: 95.3

====

Target: wild-type Androgen Receptor (AR-wt) (Homo sapiens, UniProt P10275)
Construct: expressed in transfected cells; host or cells: LNCaP (LNCaP AR (cs))
Sequence (P10275 1-920): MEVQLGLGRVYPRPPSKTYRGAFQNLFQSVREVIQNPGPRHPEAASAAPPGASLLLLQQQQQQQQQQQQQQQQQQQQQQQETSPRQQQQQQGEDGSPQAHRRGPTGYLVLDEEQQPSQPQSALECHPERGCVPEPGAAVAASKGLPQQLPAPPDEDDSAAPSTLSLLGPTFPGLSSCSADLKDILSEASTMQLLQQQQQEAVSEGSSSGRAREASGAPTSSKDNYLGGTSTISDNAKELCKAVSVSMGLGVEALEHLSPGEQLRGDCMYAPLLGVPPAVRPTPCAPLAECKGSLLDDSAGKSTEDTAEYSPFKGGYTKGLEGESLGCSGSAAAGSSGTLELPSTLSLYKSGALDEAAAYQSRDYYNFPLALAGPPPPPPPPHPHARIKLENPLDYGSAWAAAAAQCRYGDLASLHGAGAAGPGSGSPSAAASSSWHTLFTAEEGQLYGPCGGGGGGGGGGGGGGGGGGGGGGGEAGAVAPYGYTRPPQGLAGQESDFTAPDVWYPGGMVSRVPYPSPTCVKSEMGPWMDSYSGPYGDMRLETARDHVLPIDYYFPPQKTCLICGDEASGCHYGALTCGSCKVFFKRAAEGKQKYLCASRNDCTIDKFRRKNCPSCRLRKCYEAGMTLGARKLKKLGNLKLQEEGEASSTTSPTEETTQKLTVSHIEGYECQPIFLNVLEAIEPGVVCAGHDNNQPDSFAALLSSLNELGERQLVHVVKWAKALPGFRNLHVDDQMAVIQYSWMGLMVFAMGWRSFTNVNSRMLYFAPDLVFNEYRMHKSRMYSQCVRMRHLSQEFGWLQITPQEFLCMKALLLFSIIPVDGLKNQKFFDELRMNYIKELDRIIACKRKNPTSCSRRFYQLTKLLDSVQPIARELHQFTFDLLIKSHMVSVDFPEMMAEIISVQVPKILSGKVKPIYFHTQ
Assay: LNCaP-AR-wt ANT reporter assay (ARE firefly luciferase, antagonist mode)
Format: cell-based
Details: antagonist mode, 400 pM R-1881 challenge; −Log10(IC50 [Molar]); read-out: LNCaP-AR-wt ANT pIC50 (converted)
Collected IC50 values appear next to each entry.

Completed entries (count: 5):
In [3]: df
Out[3]:
                                   compound  reading
0  N#Cc1ncc(N2C(=O)C3(CCC3)N(c3ccc(Oc4cncnc4)cc3)C2=S)cc1C(F)(F)F [Cpd 88]   631 nM
1  N#Cc1ncc(N2C(=O)C3(CCC3)N(c3ccc(C(=O)N4CCCC4)c(F)c3)C2=S)cc1C(F)(F)F [Cpd 52]   741 nM
2  Cc1cc(N2C(=O)C3(CCC3)N(c3ccc(C(=O)Nc4ccc(F)cc4)c(F)c3)C2=S)cnc1C#N [Cpd 84]   912 nM
3  N#Cc1ncc(N2C(=O)C3(CCC3)N(c3ccc(C(=O)NCc4ccccc4Cl)c(F)c3)C2=S)cc1C(F)(F)F [Cpd 31]  2240 nM
4  N#Cc1ncc(N2C(=O)C3(CCC3)N(c3ccc(C(=O)NCc4cccc(Cl)c4)c(F)c3)C2=S)cc1C(F)(F)F [Cpd 95]   794 nM

Turning now to a further compound:
Exercise: Name the recorded IC50 of the item Cc1cc(N2C(=O)C3(CCC3)N(c3ccc(O)cc3)C2=S)cnc1C#N [Cpd 48] in your answer.
Solution: 617 nM

====

target: wild-type Androgen Receptor (AR-wt) (Homo sapiens); construct: expressed in transfected cells; host or cells: LNCaP (LNCaP AR (cs)); assay: LNCaP-AR-wt ANT reporter assay (ARE firefly luciferase, antagonist mode); format: cell-based; details: antagonist mode, 400 pM R-1881 challenge; −Log10(IC50 [Molar]); read-out: LNCaP-AR-wt ANT pIC50 (converted)
measured endpoint: IC50 (nM)
Give the value in nM but do not write nM after it.

Please review the following examples before continuing.
>>> df
                                   molecule                               test_target  measured_endpoint  unit_annotation  reading
0  CN1CCN(CCCNC(=O)c2ccc(N3C(=S)N(c4cnc(C#N)c(C(F)(F)F)c4)C(=O)C34CCC4)cc2F)CC1 [Cpd 108]  wild-type Androgen Receptor (AR-wt) (Homo sapiens)               IC50               nM      813
1  Cc1ccc(N2C(=S)N(c3cnc(C#N)c(C(F)(F)F)c3)C(=O)C23CCC3)cc1F [Cpd 115]  wild-type Androgen Receptor (AR-wt) (Homo sapiens)               IC50               nM      372
2  N#Cc1ncc(N2C(=O)C3(CCC3)N(c3ccc(C(=O)NCc4ccccn4)c(F)c3)C2=S)cc1C(F)(F)F [Cpd 44]  wild-type Androgen Receptor (AR-wt) (Homo sapiens)               IC50               nM      195
3  CN1CCC(Oc2ccc(N3C(=S)N(c4cnc(C#N)c(C(F)(F)F)c4)C(=O)C3(C)C)cc2)CC1 [Cpd 19]  wild-type Androgen Receptor (AR-wt) (Homo sapiens)               IC50               nM      871
4  CCCCNC(=O)c1ccc(N2C(=S)N(c3cnc(C#N)c(C(F)(F)F)c3)C(=O)C23CCC3)cc1F [Cpd 58]  wild-type Androgen Receptor (AR-wt) (Homo sapiens)               IC50               nM      245

Exercise: Answer with reported IC50 of N#Cc1ncc(N2C(=O)C3(CCC3)N(c3ccc(F)cc3)C2=S)cc1C(F)(F)F [Cpd 102]
Solution: 646

Exercise: Item N#Cc1ncc(N2C(=O)C3(CCC3)N(c3ccc(C4CCOCC4)cc3)C2=S)cc1C(F)(F)F [Cpd 89] : provide IC50
Solution: 631

Exercise: Give the measured IC50 for CCCNC(=O)c1ccc(N2C(=S)N(c3cnc(C#N)c(C(F)(F)F)c3)C(=O)C23CCC3)cc1F [Cpd 68]
Solution: 589

Exercise: Output measured IC50 for this item: N#Cc1ncc(N2C(=O)C3(CCC3)N(c3cccc(OC(F)(F)F)c3)C2=S)cc1C(F)(F)F [Cpd 97]
Solution: 912

Exercise: Specify reported IC50 for the molecule shown: N#Cc1ncc(N2C(=O)C3(CCC3)N(c3ccc(OCCCN4CCCC4)c(F)c3)C2=S)cc1C(F)(F)F [Cpd 55]
Solution: 813

Values were extracted from patent US20180008587A1.
